Entry source: patent US9271971B2

# tested target: human recombinant adrenergic α2A receptor (Homo sapiens, UniProt P08913)
# Construct: expressed in transfected cells; host or cells: insect Sf9 cells
# Sequence (P08913 whole entry): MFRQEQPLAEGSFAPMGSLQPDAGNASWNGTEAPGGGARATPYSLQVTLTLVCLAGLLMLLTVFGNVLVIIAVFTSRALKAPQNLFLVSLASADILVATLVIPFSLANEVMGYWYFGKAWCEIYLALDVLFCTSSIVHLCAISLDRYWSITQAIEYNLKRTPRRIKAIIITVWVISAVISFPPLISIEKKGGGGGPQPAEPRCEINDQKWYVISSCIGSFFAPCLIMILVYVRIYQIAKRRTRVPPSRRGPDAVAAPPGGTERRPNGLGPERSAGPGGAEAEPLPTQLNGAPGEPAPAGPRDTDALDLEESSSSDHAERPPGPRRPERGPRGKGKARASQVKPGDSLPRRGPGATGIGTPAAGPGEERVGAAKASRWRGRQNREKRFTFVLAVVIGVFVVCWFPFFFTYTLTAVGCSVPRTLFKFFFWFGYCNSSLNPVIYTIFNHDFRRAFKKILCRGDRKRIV
# assay procedure: Adrenergic α2A radioligand binding assay
# stated conditions: 1 μM; [3H]MK-912 specific binding; read-out: Percent Inhibition of ligand binding, Adrenergic (1 μM ligand conc.) α2A
# Procedure: To evaluate in radioligand binding assays the activity of compounds of the invention, human recombinant adrenergic α2A receptor expressed in insect Sf9 cells [Uhlen, S et al. J. Pharmacol. Exp. Ther. (1994), 271:1558] in a modified Tris-HCl buffer (50 mM Tris-HCl, pH 7.4, 12.5 mM MgCl2, 2 mM EDTA) was used. […] Receptor proteins were filtered and washed, the filters were then counted to determine [^3H]MK-912 specifically bound. […]
In this scheme, each record receives a class according to its inhibition at 1 µM; the ranges are lower bin (below 20%), middle bin (20% to below 70%), upper bin (70% or more)

Cc1ccc2c(c1)c1c(n2CC(=O)NC2CCCCC2)CN2CCC1C2 (stereo not drawn) [Compound 23] :: lower bin

INPUT: GET /class?item= C/C(=C\n1c2c(c3cc(C)ccc31)C1CCN(C2)C1)c1ccc(F)cc1 (stereo not drawn) [Compound 22]
OUTPUT: upper bin

INPUT: GET /class?item= C/C(=C\n1c2c(c3cc(C)ccc31)C1CCN(C2)C1)c1ccc(Cl)cc1Cl (stereo not drawn) [Compound 33]
OUTPUT: middle bin

INPUT: GET /class?item= Cc1ccc2c(c1)c1c(n2CC(C)(O)c2ccc(Cl)cc2Cl)CN2CCC1C2 (stereo not drawn) [Compound 14]
OUTPUT: lower bin

INPUT: GET /class?item= Cc1ccc2c(c1)c1c(n2CCc2cncc(F)c2)CN2CCC1C2 (stereo not drawn) [Compound 9]
OUTPUT: lower bin

INPUT: GET /class?item= Cc1ccc2c(c1)c1c(n2CCc2ccncc2)CN2CCC1C2 (stereo not drawn) [Compound 30]
OUTPUT: upper bin

INPUT: GET /class?item= Cc1ccc2c(c1)c1c(n2CC(O)c2ccccc2)CN2CCC1C2 (stereo not drawn) [Compound 4]
OUTPUT: middle bin

INPUT: GET /class?item= Cc1ccc2c(c1)c1c(n2CC(C)(O)c2ccc(F)cc2)CN2CCC1C2 (stereo not drawn) [Compound 2]
OUTPUT: middle bin

----------
# tested target: human recombinant dopamine D2L receptor (Homo sapiens, UniProt P14416)
# Sequence (P14416 whole entry): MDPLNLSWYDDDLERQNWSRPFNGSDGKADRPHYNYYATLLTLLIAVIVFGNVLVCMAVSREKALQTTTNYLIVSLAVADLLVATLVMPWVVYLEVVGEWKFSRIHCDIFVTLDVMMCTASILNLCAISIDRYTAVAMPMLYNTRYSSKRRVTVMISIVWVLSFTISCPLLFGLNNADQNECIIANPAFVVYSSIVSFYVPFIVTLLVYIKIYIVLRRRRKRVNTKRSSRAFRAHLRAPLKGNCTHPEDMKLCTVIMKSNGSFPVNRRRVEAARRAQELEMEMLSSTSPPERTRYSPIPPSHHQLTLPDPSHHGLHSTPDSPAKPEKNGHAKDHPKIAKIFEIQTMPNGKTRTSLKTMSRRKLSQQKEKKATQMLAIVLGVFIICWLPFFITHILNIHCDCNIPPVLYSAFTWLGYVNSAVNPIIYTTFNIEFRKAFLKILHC
# assay procedure: Dopamine D2L radioligand binding assay
# stated conditions: [3H]Spiperone specific binding, read-out: Percent Inhibition of ligand binding, Dopamine (1 μM ligand conc.) D2L
# inhibition at 1 µM per record follows
The reply should consist of the numeric value with the unit placed after it.

Here's what some known entries look like.
Cc1ccc2c(c1)c1c(n2CC(=O)c2ccccc2)CN2CCC1C2 (centres unmarked) :: -2%
C/C(=C\n1c2c(c3cc(C)ccc31)C1CCN(C2)C1)c1ccc(Cl)cc1 (centres unmarked) :: -12%
Cc1ccc2c(c1)c1c(n2CC(C)(O)c2ccc(F)cc2F)CN2CCC1C2 (centres unmarked) :: 5%

INPUT: // map Cc1ccc2c(c1)c1c(n2CC(C)(O)c2ccc(Cl)cc2Cl)CN2CCC1C2 (centres unmarked) to recorded inhibition at 1 µM (system: human recombinant dopamine D2L receptor (Homo sapiens, UniProt P14416))
OUTPUT: 11%

INPUT: // map Cc1ccc2c(c1)c1c(n2CC(C)(O)c2ccc(Cl)cc2)CN2CCC1C2 (centres unmarked) to recorded inhibition at 1 µM (system: human recombinant dopamine D2L receptor (Homo sapiens, UniProt P14416))
OUTPUT: 5%

INPUT: // map Cc1ccc2c(c1)c1c(n2CCc2cncc(F)c2)CN2CCC1C2 (centres unmarked) to recorded inhibition at 1 µM (system: human recombinant dopamine D2L receptor (Homo sapiens, UniProt P14416))
OUTPUT: 9%

INPUT: // map Cc1ccc2c(c1)c1c(n2CC(C)(O)c2ccc(F)c(Cl)c2)CN2CCC1C2 (centres unmarked) to recorded inhibition at 1 µM (system: human recombinant dopamine D2L receptor (Homo sapiens, UniProt P14416))
OUTPUT: -1%

INPUT: // map C/C(=C\n1c2c(c3cc(C)ccc31)C1CCN(C2)C1)c1cccnc1 (centres unmarked) to recorded inhibition at 1 µM (system: human recombinant dopamine D2L receptor (Homo sapiens, UniProt P14416))
OUTPUT: -10%

INPUT: // map Cc1ccc2c(c1)c1c(n2CC(=O)NC2CCCCC2)CN2CCC1C2 (centres unmarked) to recorded inhibition at 1 µM (system: human recombinant dopamine D2L receptor (Homo sapiens, UniProt P14416))
OUTPUT: 5%

INPUT: // map Cc1ccc2c(c1)c1c(n2CCc2ccc(C(F)(F)F)nc2)CN2CCC1C2 (centres unmarked) to recorded inhibition at 1 µM (system: human recombinant dopamine D2L receptor (Homo sapiens, UniProt P14416))
OUTPUT: 8%

INPUT: // map Cc1ccc2c(c1)c1c(n2CC(O)c2ccccc2)CN2CCC1C2 (centres unmarked) to recorded inhibition at 1 µM (system: human recombinant dopamine D2L receptor (Homo sapiens, UniProt P14416))
OUTPUT: 3%
